B1: Lysine-specific demethylase 2B, residues 656 to 722; numbered along this chain, Q8NHM5 (parent)
chain: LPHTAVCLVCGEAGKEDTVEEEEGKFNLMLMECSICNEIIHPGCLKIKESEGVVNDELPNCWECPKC

Variants of: B1
Assay: abundance fitness (aPCA) (normalised: wild type 0, dead -1); higher = more abundant; growth selection in yeast, the domain comes from the species named
Experimental Conditions: Homo sapiens
Quantity Name: abundance fitness
In your answer, state the number alone without any accompanying words.

Find the recorded abundance fitness belonging to "A5W" and report it.
0.055

Tell me the measured abundance fitness of "E63Q" , please.
-0.148

Given the variant "G52A" , what is its reported abundance fitness?
0.224

Need abundance fitness, item "G24A"
0.011

Form field: reported abundance fitness of "G14S"
-0.043

Taken from the Human Domainome abundance scans (Beltran et al. 2025).
